Source: patent US20160039676A1

protocolDetails: Electrochemical properties (onset oxidation/reduction potentials, HOMO, LUMO, gap)
Type: physicochemical
Parameters: unit not given here
measurementSetup: onset reduction potential
Items are presented alongside their recorded Ered.
// print number alone

# annotated cases, reported Ered shown
compound	Ered
Cc1cccc(C)c1C(=O)OC12c3c4c5c6c7c8c(c9c%10c1c1c%11c3c3c%12c4c4c6c6c7c7c%13c8c9c8c9c%10c1c1c%10c%11c3c3c%11c%12c4c4c6c6c7c7c%13c8c8c9c1c1c%10c3c3c%11c4c6c4c7c8c1c34)C52O[Si](C)(C)C(C)(C)C (stereo not shown)	−0.48
Cc1cccc(C)c1C(=O)OC12c3c4c5c6c7c8c(c9c%10c1c1c%11c3c3c%12c4c4c6c6c7c7c%13c8c9c8c9c%10c1c1c%10c%11c3c3c%11c%12c4c4c6c6c7c7c%13c8c8c9c1c1c%10c3c3c%11c4c6c4c7c8c1c34)C52O[Si](C)(C)c1ccccc1 (stereo not shown)	−0.65

Query: Supply measured Ered of CCCC[Si](C)(C)OC12c3c4c5c6c7c8c(c9c%10c1c1c%11c3c3c%12c4c4c6c6c7c7c%13c8c9c8c9c%10c1c1c%10c%11c3c3c%11c%12c4c4c6c6c7c7c%13c8c8c9c1c1c%10c3c3c%11c4c6c4c7c8c1c34)C52OC(=O)c1c(C)cccc1C (stereo not shown) in your reply.
Reply: −0.49

Query: Supply measured Ered of Cc1cccc(C)c1C(=O)OC12c3c4c5c6c7c8c(c9c%10c1c1c%11c3c3c%12c4c4c6c6c7c7c%13c8c9c8c9c%10c1c1c%10c%11c3c3c%11c%12c4c4c6c6c7c7c%13c8c8c9c1c1c%10c3c3c%11c4c6c4c7c8c1c34)C52OC[Si](C)(C)c1ccccc1 (stereo not shown) in your reply.
Reply: −0.54
